assay: Aqueous solubility (turbidity of solution); assay type: physicochemical; conditions: read-out: Solubility
MEASURE_NAME: solubility (µg/mL)
Write the answer as a number in µg/mL, unit excluded.

In: # get_value(readout='solubility', item= CC(=O)N[C@@H](CC(C)C)C(=O)N[C@H](C(=O)N[C@@H](Cc1ccccc1)C(=O)NC1(C)CCCCCCC=CCCCC(C)(C(=O)N[C@@H](C)C(=O)N[C@@H](C)C(=O)N[C@@H](C)C(=O)N[C@@H](C)C(=O)N[C@@H](C)C(=O)N[C@@H](C)C(=O)N[C@H](C)C(N)=O)NC(=O)[C@H](CC(C)C)NC(=O)[C@H](CCC(N)=O)NC(=O)[C@H](C)NC(=O)[C@H](Cc2c[nH]c3ccccc23)NC(=O)[C@H](Cc2ccc(O)cc2)NC(=O)[C@H](C)NC1=O)[C@@H](C)O (stereo partly shown) [SP317] )
Out: 5000

All values here come from patent US10905739B2.
